target: T1, recombinant mouse TfR-1, His-tagged (Sino Biological 50741-M07H) (mouse, UniProt Q62351 89-763); experiment: SPR, His-captured TfR1
T1 construct: bought; His-tagged; also called mTfR1; mTfR-1
T1 sequence (Q62351 89-763 limits assumed, stated change not applied): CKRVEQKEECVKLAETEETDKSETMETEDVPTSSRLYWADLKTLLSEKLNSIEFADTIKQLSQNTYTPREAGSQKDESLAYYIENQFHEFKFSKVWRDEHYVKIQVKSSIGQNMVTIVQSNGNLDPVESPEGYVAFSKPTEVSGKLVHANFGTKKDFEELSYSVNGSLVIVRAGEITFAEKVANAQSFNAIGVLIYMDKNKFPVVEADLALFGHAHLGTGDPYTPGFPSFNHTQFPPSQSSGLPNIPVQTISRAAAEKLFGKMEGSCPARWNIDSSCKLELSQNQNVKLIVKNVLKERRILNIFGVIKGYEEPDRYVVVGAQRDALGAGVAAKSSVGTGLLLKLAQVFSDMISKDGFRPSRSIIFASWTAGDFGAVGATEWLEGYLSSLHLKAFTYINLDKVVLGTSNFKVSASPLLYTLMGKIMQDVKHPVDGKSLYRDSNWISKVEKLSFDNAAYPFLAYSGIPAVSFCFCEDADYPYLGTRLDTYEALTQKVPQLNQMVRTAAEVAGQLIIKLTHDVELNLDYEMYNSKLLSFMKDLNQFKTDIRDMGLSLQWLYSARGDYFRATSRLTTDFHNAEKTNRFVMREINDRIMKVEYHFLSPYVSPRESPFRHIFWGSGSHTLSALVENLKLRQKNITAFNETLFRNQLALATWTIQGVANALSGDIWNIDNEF
The label depends only on kon: YES if it is at least 30000 M⁻¹ s⁻¹, NO if it is smaller.

Q) Item Clone H variant 7 VNAR-hFc (Fc fusion, not shown: a dimerising Fc or GST) ARVDQTPQTITKETGESLTINCVLRDSNCELSSTYWYRKKSGSTNEESISKGGRYVETVNSGSKSFSLRINDLVVEDSGTYRCNVQQFPTRTNGRYWCDVYGGGTAVTVNA with kon of 30000 M⁻¹ s⁻¹ or above?
A) NO

Q) Item Clone H variant 10 VNAR-hFc (Fc fusion, not shown: a dimerising Fc or GST, also called clone H var; 10) ARVDQTPQTITKETGESLTINCVLRDSNCELSSTYWYRKKSGSTNEESISKGGRYVETVNSGSKSFSLRINDLVVEDSGTYRCNVQQFPSWFNGRYWCDVYGGGTAVTVNA with kon of 30000 M⁻¹ s⁻¹ or above?
A) YES

Q) Item Clone H variant 5 VNAR-hFc (Fc fusion, not shown: a dimerising Fc or GST) ARVDQTPQTITKETGESLTINCVLRDSNCELSSTYWYRKKSGSTNEESISKGGRYVETVNSGSKSFSLRINDLVVEDSGTYRCNVQQFPNRWNGRYWCDVYGGGTAVTVNA with kon of 30000 M⁻¹ s⁻¹ or above?
A) YES

Q) Item Clone H variant 6 VNAR-hFc (Fc fusion, not shown: a dimerising Fc or GST) ARVDQTPQTITKETGESLTINCVLRDSNCELSSTYWYRKKSGSTNEESISKGGRYVETVNSGSKSFSLRINDLVVEDSGTYRCNVQQFPSRNNGRYWCDVYGGGTAVTVNA with kon of 30000 M⁻¹ s⁻¹ or above?
A) NO

Q) Item Clone H VNAR-hFc fusion (Fc fusion, not shown: a dimerising Fc or GST, bivalent VNAR-Fc) ARVDQTPQTITKETGESLTINCVLRDSNCELSSTYWYRKKSGSTNEESISKGGRYVETVNSGSKSFSLRINDLVVEDSGTYRCNVQQFPSSSNGRYWCDVYGGGTAVTVNA with kon of 30000 M⁻¹ s⁻¹ or above?
A) YES

Q) Item Clone H variant 8 VNAR-hFc (Fc fusion, not shown: a dimerising Fc or GST) ARVDQTPQTITKETGESLTINCVLRDSNCELSSTYWYRKKSGSTNEESISKGGRYVETVNSGSKSFSLRINDLVVEDSGTYRCNVQQFPSRHNGRYWCDVYGGGTAVTVNA with kon of 30000 M⁻¹ s⁻¹ or above?
A) YES
